Test: PK sub-study of the vaginal system over 13 product-use cycles (21 days in/7 days out), serum SA and EE
Format: in vivo, human
Details: female, human, serum, other: vaginal, EE in serum, cycle 13; mean
Experimental: The pharmacokinetics (PK) of the vaginal system described herein were determined during studies related to the prior approved use (i.e., 13 product-use cycles comprising a 21-day “product-in” period and a 7-day “product-out” period). Studies were conducted in 39 women who used the system for up to the 13 product-use cycles. […] Over subsequent product-use cycles, the peak serum concentrations of SA and EE declined. […]
MEASURED_METRIC: Cmax (nM)
Value expressed in nM; do not type the unit.

Consider the molecule shown here: C#C[C@]1(O)CC[C@H]2[C@@H]3CCc4cc(O)ccc4[C@H]3CC[C@@]21C [EE] What is its recorded Cmax?
0.131

---

Experiment: PK sub-study of the vaginal system over 13 product-use cycles (21 days in/7 days out), serum SA and EE
Format: in vivo, human
Settings: SA in serum, cycle 13; mean
Description: The pharmacokinetics (PK) of the vaginal system described herein were determined during studies related to the prior approved use (i.e., 13 product-use cycles comprising a 21-day “product-in” period and a 7-day “product-out” period). Studies were conducted in 39 women who used the system for up to the 13 product-use cycles. […] Over subsequent product-use cycles, the peak serum concentrations of SA and EE declined. […]
MEASURED_METRIC: Cmax (nM)
Write the answer as a number in nM, unit excluded.

Find the recorded Cmax belonging to C=C1C[C@H]2[C@@H]3CCC4=CC(=O)CC[C@@H]4[C@H]3CC[C@]2(C)[C@@]1(OC(C)=O)C(C)=O and report it.
0.794

---

assay: PK sub-study of the vaginal system over 13 product-use cycles (21 days in/7 days out), serum SA and EE; type: in vivo, human; conditions: EE in serum, cycle 1; mean
MEASURED_METRIC: Cmax (nM)
# output: bare number, implied unit nM

Can you look up the measured Cmax of C#C[C@]1(O)CC[C@H]2[C@@H]3CCc4cc(O)ccc4[C@H]3CC[C@@]21C [EE] for me?
0.435

---

assay: PK sub-study of the vaginal system over 13 product-use cycles (21 days in/7 days out), serum SA and EE; type: in vivo, human; conditions: SA in serum, cycle 1; mean
MEASURED_METRIC: Cmax (nM)
// note: answer is a bare numeric in nM

// Cmax lookup, key: C=C1C[C@H]2[C@@H]3CCC4=CC(=O)CC[C@@H]4[C@H]3CC[C@]2(C)[C@@]1(OC(C)=O)C(C)=O [SA]
3.1

---

experiment: PK sub-study of the vaginal system over 13 product-use cycles (21 days in/7 days out), serum SA and EE; format: in vivo, human; details: SA in serum, cycle 3; mean
MEASURED_METRIC: Cmax (nM)
Answer in nM, number only, no unit symbol.

Please give the measured Cmax for this compound: C=C1C[C@H]2[C@@H]3CCC4=CC(=O)CC[C@@H]4[C@H]3CC[C@]2(C)[C@@]1(OC(C)=O)C(C)=O
0.98

Values compiled from patent US20240252428A1.
